TARGET_ENTITY: human ERα (Homo sapiens, UniProt P03372)
Construct: purchased Panvera (Göttingen, Germany)
ASSAY_DETAILS: Fluorescence polarization ER/D22 coactivator-peptide assay, ERα
Format: biochemical
APPLIED_CONDITIONS: recombinant human ERα, D22 peptide, 1 h; read-out: ERα antagonist EC50
QUANTITY_NAME: EC50 (nM)

1. Oc1cc(O)cc(C=Cc2cc(O)c(O)c(O)c2)c1 [Compound M11, 3,3′,4,5,5′-pentahydroxystilbene]
2. Oc1cc(C=Cc2cc(O)c(O)c(O)c2)cc(O)c1O [Compound M12, 3,3′,4,4′,5,5′-hexahydroxystilbene]
Task: Larger number for EC50: 1 , or 2 ? API: response body contains the label of the selected item.
Result: 1

====

TARGET_ENTITY: human ERα (Homo sapiens, UniProt P03372)
Construct: purchased Panvera (Göttingen, Germany)
Sequence (P03372 1-595): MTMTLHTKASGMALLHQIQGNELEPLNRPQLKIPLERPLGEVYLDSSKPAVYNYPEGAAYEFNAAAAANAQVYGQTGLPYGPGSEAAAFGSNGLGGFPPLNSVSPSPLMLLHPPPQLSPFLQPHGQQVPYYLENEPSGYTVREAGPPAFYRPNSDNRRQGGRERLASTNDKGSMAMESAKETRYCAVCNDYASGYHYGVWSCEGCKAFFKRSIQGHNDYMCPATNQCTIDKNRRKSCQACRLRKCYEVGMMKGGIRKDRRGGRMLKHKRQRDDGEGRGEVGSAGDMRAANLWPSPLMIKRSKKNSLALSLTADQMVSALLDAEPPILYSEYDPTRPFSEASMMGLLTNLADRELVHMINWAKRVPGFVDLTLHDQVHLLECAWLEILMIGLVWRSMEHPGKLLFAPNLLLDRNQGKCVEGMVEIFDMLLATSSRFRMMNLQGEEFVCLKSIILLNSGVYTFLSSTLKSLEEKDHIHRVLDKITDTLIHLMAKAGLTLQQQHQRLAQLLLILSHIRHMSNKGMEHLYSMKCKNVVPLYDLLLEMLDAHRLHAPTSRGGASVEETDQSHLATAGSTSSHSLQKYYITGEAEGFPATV
ASSAY_DETAILS: Fluorescence polarization ER/D22 coactivator-peptide assay, ERα
Type: biochemical
APPLIED_CONDITIONS: fluorescence polarisation, recombinant receptor

COMPOUND: Oc1cc(C=Cc2cc(O)c(O)c(O)c2)cc(O)c1O [Compound M12, 3,3′,4,4′,5,5′-hexahydroxystilbene]
agonistic/antagonistic activity for ERα: antagonistic activity

COMPOUND: Oc1ccc(C=Cc2cc(O)c(O)c(O)c2)cc1 [Compound M8, 3,4,4′,5-tetrahydroxystilbene]
agonistic/antagonistic activity for ERα: agonistic activity

COMPOUND: Oc1ccc(/C=C/c2cc(O)cc(O)c2)cc1 [resveratrol]
agonistic/antagonistic activity for ERα: agonistic activity

COMPOUND: Oc1cc(O)cc(C=Cc2cc(O)c(O)c(O)c2)c1 [Compound M11, 3,3′,4,5,5′-pentahydroxystilbene]
agonistic/antagonistic activity for ERα: antagonistic activity

====

TARGET_ENTITY: human ERβ (Homo sapiens)
Construct: purchased Panvera (Göttingen, Germany)
Sequence (Q92731 whole entry): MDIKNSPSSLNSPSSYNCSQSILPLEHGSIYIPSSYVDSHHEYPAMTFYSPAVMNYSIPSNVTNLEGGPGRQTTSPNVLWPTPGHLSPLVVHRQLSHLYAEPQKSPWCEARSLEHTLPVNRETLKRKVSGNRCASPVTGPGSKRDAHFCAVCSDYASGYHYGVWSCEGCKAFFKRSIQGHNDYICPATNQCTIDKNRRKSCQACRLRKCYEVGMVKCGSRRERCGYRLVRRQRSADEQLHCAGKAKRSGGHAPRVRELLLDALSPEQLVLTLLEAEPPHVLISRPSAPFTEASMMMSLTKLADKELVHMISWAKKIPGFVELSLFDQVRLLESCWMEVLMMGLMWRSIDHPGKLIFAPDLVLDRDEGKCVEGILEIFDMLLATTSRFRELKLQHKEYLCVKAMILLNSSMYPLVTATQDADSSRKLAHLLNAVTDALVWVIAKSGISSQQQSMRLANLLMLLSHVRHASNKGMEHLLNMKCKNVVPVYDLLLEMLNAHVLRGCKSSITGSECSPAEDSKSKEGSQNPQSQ
ASSAY_DETAILS: Fluorescence polarization ER/D22 coactivator-peptide assay, ERβ
Type: biochemical
APPLIED_CONDITIONS: recombinant human ERβ, D22 peptide, 1 h; read-out: ERβ Agonist EC50
QUANTITY_NAME: EC50 (nM)
// units = nM; emit number, no label

Reported EC50 ( Oc1ccc(C=Cc2cc(O)c(O)c(O)c2)cc1 [Compound M8, 3,4,4′,5-tetrahydroxystilbene] ) = 8.1
